Tested on: OVCAR-8 ovarian
assay: NCI-60 one-dose screen, 48 h
protocolConditions: 10 µM unless noted
This is part of a sample that, as a whole, favours compounds with a hit. Of some 83,000 tested, about 20% had one in any assay. Calls of active or inactive are those of the source. How the source made its calls: active means growth percent below 10; inactive means the rest.
Lab note: assign the record to one of active, inactive

Use the examples below as a reference point.
- compound: "Cc1ccccc1-n1nnc(C(=O)Nc2ccc(-c3ccccc3)cn2)c1C"
  assignedClass: "inactive"
- compound: "N#CC1=C(N)Oc2cc(N)ccc2C1c1ccc(F)cc1 (stereo unspecified)"
  assignedClass: "inactive"
- compound: "Cc1ccc(-c2c3c(N)c4c(nc3nc3c2c(C)nn3-c2ccccc2)CCCC4)cc1"
  assignedClass: "inactive"
- compound: "Cc1ccc(N=c2nc3sc4c(C)ccc(C)c4n3c(N)c2C#N)cc1"
  assignedClass: "inactive"

Q. What outcome does the record of this test show for COc1cc2nc(SCc3cc(OC)c(OC)c(OC)c3)n(-c3ccccc3OC)c(=O)c2cc1OC ?
A. inactive

Q. Same for CCOC(=O)C1=C(C)N2C(=NC3=C(CCCC/C3=C\c3ccccc3)C2c2ccccc2)S1 (stereo unspecified)
A. inactive

Q. Same for Cc1nc2ccc(Cl)cc2n1C
A. inactive

Q. Same for NC(=O)c1cc(I)ccc1NC(=O)COc1ccccc1
A. inactive

---

System: IGROV1 ovarian
assay: NCI-60 one-dose screen, 48 h
protocolConditions: 10 µM unless noted
About 83,000 compounds went through this panel and 20% of them were active in at least one assay; those are over-represented in the sample as a whole. Activity calls are given as the source filed them. Rule for the calls: active = growth percent below 10; inactive = the rest.
Lab note: assign the record to one of active, inactive

Use the examples below as a reference point.
- compound: "NC(=O)c1cc(I)ccc1NC(=O)COc1ccccc1"
  assignedClass: "inactive"
- compound: "Cn1c2c(cc(S(=O)(=O)c3ccccc3)c1=O)CCc1c-2cnn1-c1cccc(Cl)c1"
  assignedClass: "inactive"
- compound: "Cc1c(C(=O)Nc2nc(-c3ccccc3)cs2)nnn1-c1cccc2ccccc12"
  assignedClass: "inactive"
- compound: "COc1ncnc2c1ncn2C/C(Br)=C(\\Br)CCl"
  assignedClass: "inactive"

Q. What outcome does the record of this test show for Cc1nc2cc(Nc3nc(N4CCOCC4)nc(N4CCN(C)CC4)n3)ccc2n1Cc1ccccc1 ?
A. inactive

Q. Same for O=S(=O)(Nc1ncccn1)c1ccc(Nc2ccc3nnc(-c4ccncc4)n3n2)cc1
A. inactive

Q. Same for N#CC1=C(N)Oc2cc(N)ccc2C1c1ccc(F)cc1 (stereo unspecified)
A. inactive

Q. Same for Cc1ccc(S(=O)(=O)N2CCc3ccc(O)c4c3C2Cc2cc(Cl)ccc2-4)cc1 (stereo unspecified)
A. inactive

Q. Same for Cc1cccc2c(=O)c3c(sc12)c(NCCCN)nc1ccccc13
A. active

Q. Same for Nc1ccccc1-c1n[nH]c(=O)[nH]c1=O
A. inactive

Q. Same for OC[C@@H](O)[C@@H](O)CO
A. inactive

---

System: HT29 colon
assay: NCI-60 one-dose screen, 48 h
protocolConditions: 10 µM unless noted
Compounds without any hit were thinned out: in the full panel of roughly 83,000, 20% have a hit. Activity calls are given as the source filed them. The calls were made as follows: active = growth percent below 10; inactive = the rest.
Lab note: assign the record to one of T for active, F for inactive

Use the examples below as a reference point.
- smilesEntry: "O=C(Nc1ccccc1)Oc1cccc2cccnc12"
  assignedClass: "F"
- smilesEntry: "O=C(Nc1nc2ccccc2[nH]1)C(=O)Nc1nc2ccccc2[nH]1"
  assignedClass: "F"
- smilesEntry: "Clc1ccc(Nc2nc(Nc3ccccc3)nc(Nc3ccc(-c4cc(-c5ccc(Cl)cc5)on4)cc3)n2)cc1"
  assignedClass: "T"
- smilesEntry: "COC(=O)c1ccc(C(=O)Nc2ccccc2N)cc1"
  assignedClass: "F"
- smilesEntry: "CC(=O)Nc1ccccc1-c1n[nH]c(=O)[nH]c1=O"
  assignedClass: "F"

Could you now consider this next molecule?
Q. What outcome does the record of this test show for Cc1nc2nc(C(F)(F)F)[nH]c2nc1C ?
A. F

---

System: T-47D breast
assay: NCI-60 one-dose screen, 48 h (100 = growth as untreated, 0 = no growth, -100 = all killed)
protocolConditions: 10 µM
The panel holds about 83,000 compounds, 20% with a hit somewhere; the sample as a whole holds those more often. Calls of active or inactive are those of the source. The calls were made as follows: active = growth percent below 10; inactive = the rest.
measuredProperty: growth

Look over these answered cases.
- compound: "O=C(O)c1ccccc1Oc1cc(-c2ccco2)nc(OCCBr)n1"
  growth: "101% (inactive)"
- compound: "COc1cccc2c(=O)c3c(sc12)c(NCCN(C)C)nc1ccccc13"
  growth: "61.3% (inactive)"
- compound: "Cc1c(C)n(CC(O)CNC2CCCCC2C)c2ccccc12 (stereo not drawn)"
  growth: "-10.5% (active)"
- compound: "COc1cc(C(F)(F)F)ccc1-c1cc(-c2ccc(F)cc2)n[nH]1"
  growth: "62.7% (inactive)"
- compound: "O=C1c2ccccc2-c2nnc(-c3ccc(Br)cc3)cc21"
  growth: "52.7% (inactive)"
- compound: "N#Cc1ccc(C(F)(F)F)nc1N1CCC(C(=O)Nc2ccc(Cl)cc2)CC1"
  growth: "64.7% (inactive)"

Moving on to another compound below.
Q. Observed growth on T-47D breast for c1ccc(-c2nc(N3CCOCC3)c3c4c(sc3n2)CCCCCC4)nc1 , please.
A. 17.8% (inactive)

---

System: HT29 colon
assay: NCI-60 one-dose screen, 48 h
protocolConditions: 10 µM unless noted
Protocol: Growth inhibition of the HT29 human tumor cell line is measured as a screen for anti-cancer activity. Cells are grown in 96 well plates and exposed to the test compound for 48 hours. Compounds are tested at a single concentration, which is 10^-5 M for most compounds. The reported endpoint is percent growth (GI% or GIPRCNT), where numbers from 0 - 100% represent growth inhibition, and numbers from -100% - 0 represent cell death. For example, a value of 40 represents 60% growth inhibition. […]
This is part of a sample that, as a whole, favours compounds with a hit. Of some 83,000 tested, about 20% had one in any assay. Active and inactive are the calls of the source. Rule for the calls: active = growth percent below 10; inactive = the rest.
Lab note: assign the record to one of class 1 for active, class 0 for inactive

Use the examples below as a reference point.
- molecule: "CCCCCCCCCCCCCCNc1nc(CO)ncc1-c1ccc(C(F)(F)F)cc1"
  assignedClass: "class 0"
- molecule: "CC(C)(C)[Si](C)(C)OC1[C@@H](COC(N)=O)O[C@@H](n2cnc3c(N)ncnc32)[C@H]1O[Si](C)(C)C(C)(C)C (some centres undefined)"
  assignedClass: "class 0"
- molecule: "Cc1c(NCC(=O)Nc2nc3ccccc3[nH]2)c(=O)n(-c2ccccc2)n1C"
  assignedClass: "class 0"
- molecule: "O=C1C(Cl)=C(NCCCN2CCOCC2)C(=O)c2ccccc21"
  assignedClass: "class 0"
- molecule: "COc1ccc(NC(=O)COc2ccccc2)c(C(N)=O)c1"
  assignedClass: "class 1"
- molecule: "Nc1nc2c(s1)CCc1c-2c(Br)n(Cc2ccccc2)c1Br"
  assignedClass: "class 0"
- molecule: "O=C1c2[nH]cc(CN[C@@H]3CCCN3)c2C(=O)c2c1c(O)c1ccccc1c2O"
  assignedClass: "class 1"
- molecule: "Cc1nc2cc(Nc3nc(Nc4ccc(F)cc4)nc(N4CCCC4)n3)ccc2n1Cc1ccccc1"
  assignedClass: "class 1"

Could you now consider this next molecule?
Q. What outcome does the record of this test show for O=c1c2c(=NCCN3CCCC3)cc3c(=O)n(CCCN4CCOCC4)c(=O)c4c(-c5ccc(CN6CCCC6)cc5)cc(c(O)n1CCCN1CCOCC1)c2c4-3 ?
A. class 1

---

Test system: BT-549 breast
assay: NCI-60 one-dose screen, 48 h
protocolConditions: 10 µM unless noted
Method: Growth inhibition of the BT-549 human tumor cell line is measured as a screen for anti-cancer activity. Cells are grown in 96 well plates and exposed to the test compound for 48 hours. Compounds are tested at a single concentration, which is 10^-5 M for most compounds. The reported endpoint is percent growth (GI% or GIPRCNT), where numbers from 0 - 100% represent growth inhibition, and numbers from -100% - 0 represent cell death. For example, a value of 40 represents 60% growth inhibition. […]
This is part of a sample that, as a whole, favours compounds with a hit. Of some 83,000 tested, about 20% had one in any assay. The source made the active and inactive calls. Rule for the calls: active = growth percent below 10; inactive = the rest.
Lab note: assign the record to one of active, inactive

Use the examples below as a reference point.
- molecule: "O=c1ccc2ccccc2o1"
  assignedClass: "inactive"
- molecule: "Cc1cc(=O)oc2c1ccc1oc(C(=O)c3ccccc3)c(C)c12"
  assignedClass: "inactive"
- molecule: "CCN(CC)c1ccc(/C=C(\\C#N)c2cc3ccccc3[nH]2)cc1"
  assignedClass: "inactive"
- molecule: "Cc1cc(NS(=O)(=O)c2ccc(NC(=O)COc3ccc(-c4cc5ccccc5[nH]4)cc3)cc2)no1"
  assignedClass: "inactive"
- molecule: "CC(=O)Nc1ccccc1-c1n[nH]c(=O)[nH]c1=O"
  assignedClass: "inactive"

Q. What outcome does the record of this test show for Clc1ccc(C2=Nc3cccc4cccc(c34)N2)cc1Cl ?
A. inactive

Q. Same for c1ccc2cc(-c3n(Cc4ccc5ccccc5n4)c4ccccc4[n+]3Cc3ccc4ccccc4n3)ccc2c1
A. active

Q. Same for CC(C)(C)[Si](C)(C)OC1[C@@H](COC(=O)NC(=O)CCl)O[C@@H](n2cnc3c(N)ncnc32)[C@H]1O[Si](C)(C)C(C)(C)C (stereo not given in full)
A. active

Q. Same for Cc1nc2cc(Nc3nc(Cl)nc(Nc4ccc(F)cc4)n3)ccc2n1Cc1ccccc1
A. inactive

Q. Same for COc1ccc(NC(=O)c2ccc3c(c2)nc(-c2ccc(Cl)cc2)n3-c2cc(C(C)(C)C)[nH]n2)cc1
A. inactive
